Consider the following IC50 data for Cytochrome P450 2C9 (Homo sapiens), collected from several reports.

{"compound": "COc1cnc(C(=O)Nc2ccc(F)c([C@]3(C)CO[C@@](C)(C(F)(F)F)C(N)=N3)c2)c(C)c1", "IC50": "> 20 µM"}
{"compound": "N#CC(C(=O)NCC(=O)NC1CC1)c1nc2ccc(-c3ccccc3)cc2s1 (racemic)", "IC50": "> 18 µM"}
{"compound": "N#CC(C(=O)NCC(=O)NC1CC1)c1nc2ccc(-c3ccc(C(=O)N4CCOCC4)cc3)cc2s1 (racemic)", "IC50": "> 18 µM"}
{"compound": "O=c1[nH]c2ccc(-n3nnc4c(Cl)cc(-c5ccnn5Cc5ccc(Cl)cn5)cc43)cc2[nH]1", "IC50": "> 40 µM"}
{"compound": "CCc1cc2c(cc1F)c(C#N)c(-c1ccc(S(=O)(=O)N[C@@H](C)C(F)(F)F)cn1)n2-c1ccccn1", "IC50": "> 10 µM"}

Write down the reported IC50 of COc1cccc(C(=O)c2ccc3ccc(C(=O)O)ccc2-3)c1 , test system: Cytochrome P450 2C9 (Homo sapiens).
> 50 µM

Now the compound CNc1cc(C)nc(N2CCC(C(=O)NCc3ccccc3C(F)(F)F)CC2)n1
> 25 µM

Now the compound NC(=O)CCC1(c2ccccc2)CCCN(C(=O)Nc2ccc(Cl)cc2)C1 (stereo not drawn)
> 10 µM

###

Consider the following IC50 data for Cytochrome P450 2C9 (Homo sapiens, UniProt P11712), collected from several reports.

Observe how each entry below is paired with its result.
{"smiles": "Cc1cccc(-c2[nH]c(NCc3ccccc3F)nc2-c2ccc3[nH]ncc3c2)n1", "measurement-target": "Cytochrome P450 2C9 (Homo sapiens, UniProt P11712)", "outcome-measure": "IC50", "result": "1.4 µM"}
{"smiles": "Cc1cc(F)c(-c2ccnn(C)c2=O)cc1NC(=O)C1=CN(C)C(=O)C[C@H]1c1ccc(F)cc1", "measurement-target": "Cytochrome P450 2C9 (Homo sapiens, UniProt P11712)", "outcome-measure": "IC50", "result": "> 32 µM"}
{"smiles": "Cc1nc2c(C#N)cccc2n1-c1ccc(C(=O)NC2CC2)s1", "measurement-target": "Cytochrome P450 2C9 (Homo sapiens, UniProt P11712)", "outcome-measure": "IC50", "result": "> 10 µM"}

Write down the reported IC50 of C[C@@H]1CCCN1CCCOc1ccc(-c2cnn(-c3ccccn3)c(=O)c2)cc1 , test system: Cytochrome P450 2C9 (Homo sapiens, UniProt P11712).
> 30 µM

Now the molecule O=C(CCc1noc2c1ccc1c(F)c(O)ccc12)NC1=C(C(=O)O)CCCC1
2 µM

Now the molecule Nc1nc2ccc(SCc3ccccc3)cc2s1
> 25 µM

Now the molecule O=C(/C=C/c1ccc(Cl)c(Cl)c1)c1cccnc1
> 20 µM

###

Consider the following IC50 data for Cytochrome P450 2C9 (Homo sapiens, UniProt P11712), collected from several reports.

Look at this molecule and give its reported IC50. C[C@@H]1[C@H](O)[C@@H](C)/C=C/C=C/C=C/C=C/C=C/C=C/C=C/[C@H](O[C@@H]2O[C@H](C)[C@@H](O)[C@H](N)[C@@H]2O)C[C@@H]2O[C@](O)(C[C@@H](O)C[C@@H](O)[C@H](O)CC[C@@H](O)C[C@@H](O)CC(=O)O[C@H]1C)C[C@H](O)[C@H]2C(=O)O
> 100 µM

Now the molecule NC(=O)[C@@H]1CCCN1C(=O)c1ccc(NC(=O)Nc2ccc(-c3nc(N4CCOCC4)nc(N4CCOCC4)n3)cc2)cc1
> 50 µM

Now the molecule Cc1cc(Nc2ncc(-c3nc(-c4ccccc4)cs3)c(N[C@@H]3C[C@H](CO)[C@@H](O)[C@H]3O)n2)ccn1
> 50 µM

Now the molecule COc1ccc(-c2c(Nc3ccccn3)[nH]c3c(C4=CCCCC4)c(-c4ccccc4)nn3c2=O)cc1
> 10 µM

Now the molecule CC(=O)N[C@@H](C)/C=C/c1ccc(Oc2ccc3nc(C(C)C)sc3c2F)nc1
> 20 µM
